- TARGET OR SYSTEM: Anti-CD28 scFv (VH-linker 1-VL)
- Sequence (scFv, as listed by the source): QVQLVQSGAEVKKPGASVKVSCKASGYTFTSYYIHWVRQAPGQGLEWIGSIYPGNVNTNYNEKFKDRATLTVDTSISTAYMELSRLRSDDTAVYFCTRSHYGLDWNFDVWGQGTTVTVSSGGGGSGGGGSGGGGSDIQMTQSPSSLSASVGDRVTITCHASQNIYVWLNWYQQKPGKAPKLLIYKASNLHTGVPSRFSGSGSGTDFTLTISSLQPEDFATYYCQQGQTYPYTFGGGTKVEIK
- EXPERIMENT DESCRIPTION: phage ELISA: biotinylated anti-CD28 scFv on neutravidin plate, clonal phage supernatant, anti-M13-HRP; wells pre-incubated with soluble CD28 (competitor);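 note: wells pretreated with soluble CD28 protein in blocking buffer before phage addition, no wash in between, reference wells got blocking buffer only, bound phage detected after washing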
The binders listed here are annotated with their Phage binding ELISA CD28 scFv signal in presence of CD28.
Hey, just send me the number, nothing else.

// solved cases for Phage binding ELISA CD28 scFv signal in presence of CD28 follow
- IHLCHWVPWIKCSH (Clonal phage from the Peptide-9 library) [Phage-430]: 2.51
- ITQCPSTMWNRCSV (Clonal phage from the Peptide-9 library) [Phage-424]: 0.108
- IYWCPIDRWNDCYN (Clonal phage from the Peptide-9 library) [Phage-442]: 0.164
- MDWCPRDWWHMCFN (Clonal phage from the Peptide-9 library) [Phage-452]: 0.243

Lab note: next binder to report on.
Lookup: Report measured Phage binding ELISA CD28 scFv signal in presence of CD28; entry is MDWCPRDRWDVCFA (Clonal phage from the Peptide-9 library) [Phage-439]
Found: 0.096
